test_target: NHERF2_2, Q15599
Sequence (Q15599 142-238): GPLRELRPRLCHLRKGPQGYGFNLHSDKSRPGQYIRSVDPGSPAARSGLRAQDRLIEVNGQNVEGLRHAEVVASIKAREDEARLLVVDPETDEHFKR
assay_details: holdup assay
Design: key: below the threshold = too weak to quantify, mostly under pKd 3.1 to 4
reported_conditions: plain residues with an end cap or a label only (N-terminal biotin on a linker: ahx)
measured_parameter: pKd
One number for each entry.

binder="RAVEEEESRF [PSCDBP, O60759]" endpoint_value=5

In the following, a different binder is considered.
[ask] Provide one value: measured pKd of GYDWGPATDL [TJP3, O95049]
[reply] 4.64

Data provenance: paper PMC9482650
